Biological target: T1, recombinant human CXCR3 (human, UniProt P49682 1-368, limits assumed)
T1 construct: also called C-X-C motif chemokine receptor 3
T1 sequence (looked up): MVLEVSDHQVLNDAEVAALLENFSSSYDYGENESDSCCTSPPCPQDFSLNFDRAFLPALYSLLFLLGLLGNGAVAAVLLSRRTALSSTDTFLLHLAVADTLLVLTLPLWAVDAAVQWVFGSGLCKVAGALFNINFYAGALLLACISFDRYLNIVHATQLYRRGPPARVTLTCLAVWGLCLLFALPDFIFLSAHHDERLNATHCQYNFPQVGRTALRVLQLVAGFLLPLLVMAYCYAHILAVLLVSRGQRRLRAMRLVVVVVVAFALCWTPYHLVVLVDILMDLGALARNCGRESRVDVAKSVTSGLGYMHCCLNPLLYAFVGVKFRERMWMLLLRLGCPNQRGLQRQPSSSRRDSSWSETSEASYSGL
Assay: binding kinetics; method and antigen not given
parameter: pKd
FYI, pKd means -log10 of a concentration in mol per litre.

**Q:** I would be grateful if you could share the reported pKd for humanized clone 53 HuAntibody 23 (antibody, V domains shown, humanized anti-human CXCR3 mAb) VH: EVQLLESGGGLVQPGGSLRLSCAASGFTFTSYAMSWVRQAPGKGLEWVAVISHGGTYTYYADSVKGRFTISRDNAKNTLYLQMNSLRAEDTAVYYCARHPIYSGNYQGYFDYWGQGTLVTVSS VL: DIQLTQSPSFLSASVGDRVTITCRASSGVNYLYWYQQKPGKAPKLWIYFTSTLAPGVPSRFSGSGSGNEYTLTISSLQPEDFATYYCQQFTSSPYTFGGGTKLEIK .
**A:** 9.49

More entries:
**Q:** I would be grateful if you could share the reported pKd for humanized clone 53 HuAntibody 27 (antibody, V domains shown, humanized anti-human CXCR3 mAb) VH: EVQLLESGGGLVQPGGSLRLSCAASGFTFTSYAMSWVRQAPGKGLEWVATISHGGTYTYYPDSVKGRFTISRDNAKNTLYLQMNSLRAEDTAMYYCARHPIYSGNYQGYFDYWGQGTLVTVSS VL: DIQLTQSPSFLSASVGDRVTITCRASSGVNYLYWYQQKPGKAPKLWIYFTSTLAPGVPSRFSGSGSGNEYTLTISSLQPEDFATYYCQQFTSSPYTFGQGTKLEIK .
**A:** 10.13

**Q:** I would be grateful if you could share the reported pKd for humanized clone 53 HuAntibody 31 (antibody, V domains shown, humanized anti-human CXCR3 mAb) VH: EVQLLESGGGLVQPGGSLRLSCAASGFTFTSYAMSWVRQAPGKGLEWVATISHGGTYTYYPDSVKGRFTISRDNAKNTLYLQMNSLRAEDTAMYYCARHPIYSGNYQGYFDYWGQGTLVTVSS VL: DIQLTQSPSFLSASVGDRVTITCRASSGVNYLYWYQQKPGKAPKLWIYFTSTLASGVPSRFSGSGSGNEYTLTISSLQPEDFATYYCQQFTSSPYTFGGGTKLEIK .
**A:** 9.35

**Q:** I would be grateful if you could share the reported pKd for humanized clone 53 HuAntibody 33 (antibody, V domains shown, humanized anti-human CXCR3 mAb) VH: EVQLLESGGGLVQPGGSLRLSCAASGFTFTSYAMSWVRQAPGKGLEWVATISHGGTYTYYPDSVKGRFTISRDNAKNTLYLQMNSLRAEDTAVYYCARHPIYSGNYQGYFDYWGQGTLVTVSS VL: DIQLTQSPSFLSASVGDRVTITCRASSGVNYLYWYQQKPGKAPKLWIYFTSTLASGVPSRFSGSGSGNEYTLTISSLQPEDFATYYCQQFTSSPYTFGGGTKLEIK .
**A:** 9.18
